- TEST SYSTEM: UniProt P63085
- TEST PROTOCOL: Coupled MEK1/ERK2 IMAP assay or Active ERK2 IMAP assay
- Type: biochemical
- ASSAY CONDITIONS: Table 2, 30 μM ATP
OBSERVABLE: pIC50
Here pIC50 is given on a logarithmic scale as minus log10 of the concentration in mol/L.

MOLECULE: Cc1ccsc1CN1CCC[C@@H](NC(=O)N2CCc3[nH]nc(-c4ccncc4)c3C2)C1 [Compound 58]
pIC50: 8.70

MOLECULE: Cc1cccc(C)c1CN1CCC[C@@H](NC(=O)N2CCc3[nH]nc(-c4ccncc4)c3C2)C1 [Compound 71]
pIC50: 8.68

MOLECULE: O=C(N[C@@H]1CCCN(Cc2ccccc2Cl)C1)N1CCc2[nH]nc(-c3ccncc3)c2C1 [Compound 69]
pIC50: 8.62

Ask: Give the measured pIC50 of Cc1cccc(C)c1CN1CCC[C@@H](NC(=O)N2CCc3[nH]nc(-c4ccc5nccn5c4)c3C2)C1 [Compound 110] .
Result: 8.28

Ask: Report pIC50 for CC(=O)n1cc(CN2CCC[C@@H](NC(=O)N3CCc4[nH]nc(-c5ccncc5)c4C3)C2)c2ccccc21 [Compound 62] please.
Result: 8.70

Ask: Fill blank: measured pIC50 of the molecule Cc1ccccc1[C@@H]1CN(C)C[C@H]1NC(=O)N1CCc2[nH]nc(-c3ccc4c(c3)CCO4)c2C1 (racemic) [Compound 145] is ____.
Result: 8.82

Ask: // pIC50 lookup, key: COc1cccc(F)c1CN1CC(NC(=O)N2CCc3[nH]nc(-c4ccnc(C)c4)c3C2)CC(C(F)(F)F)C1 (stereo not shown) [Compound 123]
Result: 8.37

----------
- TEST SYSTEM: Mouse ERK2 protein (Mus musculus (Mouse), UniProt P63085)
- Sequence (P63085 whole entry): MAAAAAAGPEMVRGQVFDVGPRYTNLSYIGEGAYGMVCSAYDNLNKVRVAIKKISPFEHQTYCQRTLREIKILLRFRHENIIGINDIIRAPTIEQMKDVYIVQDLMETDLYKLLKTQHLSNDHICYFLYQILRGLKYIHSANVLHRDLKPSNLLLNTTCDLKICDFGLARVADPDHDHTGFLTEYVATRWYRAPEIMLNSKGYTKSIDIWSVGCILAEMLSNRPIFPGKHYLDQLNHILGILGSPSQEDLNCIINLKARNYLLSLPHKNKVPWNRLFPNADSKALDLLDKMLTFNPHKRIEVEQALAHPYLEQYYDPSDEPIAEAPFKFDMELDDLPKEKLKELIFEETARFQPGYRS
- TEST PROTOCOL: Coupled MEK1/ERK2 IMAP assay or Active ERK2 IMAP assay
- Assay type: biochemical
- ASSAY CONDITIONS: Table 1, class symbols, 30 μM ATP
pIC50: −log10 of the molar value.
OBSERVABLE: pIC50

Some entries whose results are on file:
MOLECULE: COc1cccc(F)c1CN1CCC[C@@H](NC(=O)N2CCc3[nH]nc(-c4ccc5c(c4)CCO5)c3C2)C1
RESULT VALUE: > 7.70
//
MOLECULE: COc1cccc(OC)c1CN1CCC[C@@H](NC(=O)N2CCc3[nH]nc(-c4ccncc4)c3C2)C1
RESULT VALUE: 6.00 to 7.00
//
MOLECULE: Cc1nc2cc(-c3n[nH]c4c3CN(C(=O)N[C@@H]3CCCN(Cc5cccc6cnccc56)C3)CC4)ccc2o1
RESULT VALUE: 6.00 to 7.00

Ask: Param readout= pIC50; system= Mouse ERK2 protein (Mus musculus (Mouse), UniProt P63085); entry= `O=C(N[C@@H]1CCCN(CCc2ccccc2)C1)N1CCc2[nH]nc(-c3ccncc3)c2C1` ; returns value.
Result: 7.00 to 7.68

Ask: Missing value: pIC50, Mouse ERK2 protein (Mus musculus (Mouse), UniProt P63085), entry `O=C(Cc1ccccc1C(F)(F)F)N1CCc2[nH]nc(-c3ccncc3)c2C1` . Fill in?
Result: 6.00 to 7.00

Ask: // map Cc1cc(-c2n[nH]c3c2CN(C(=O)NC2CC(C(=O)O)CN(Cc4c(F)cccc4F)C2)CC3)ccn1 (stereo not drawn) to recorded pIC50 (system: Mouse ERK2 protein (Mus musculus (Mouse), UniProt P63085))
Result: 6.00 to 7.00

----------
- TEST SYSTEM: Mouse ERK2 protein (Mus musculus (Mouse), UniProt P63085)
- TEST PROTOCOL: Coupled MEK1/ERK2 IMAP assay or Active ERK2 IMAP assay
- Type: biochemical
- ASSAY CONDITIONS: Table 1, class symbols, 30 μM ATP
- Method: 14 μl of kinase buffer (10 mM Tris.HCl pH 7.2, 10 mM MgCl2, 0.01% Tween-20, 1 mM DTT) containing 0.4 ng unphosphorylated Mouse ERK2 protein is added to each well of a black 384-well assay plate. […] DMSO concentration during initial incubation is 6.7%. […] Binding is allowed to equilibrate for 30 minutes before reading the plate on an LJL Analyst Fluorescence Polarization plate reader. Activated ERK2 activity was also determined in the IMAP assay format using the procedure outlined above. […]
pIC50: −log10 of the molar value.
Below is a list of entries, each paired with its recorded pIC50 value.

Some entries whose results are on file:
COMPOUND: O=C(Cc1ccccc1-c1cccnc1)N1CCc2[nH]nc(-c3ccncc3)c2C1
pIC50: 6.00 to 7.00
//
COMPOUND: COc1ccc2ccccc2c1CN1CCC[C@@H](NC(=O)N2CCc3[nH]nc(-c4ccnc(C)c4)c3C2)C1
pIC50: 7.00 to 7.68
//
COMPOUND: COc1ccccc1CC(=O)N1CCc2[nH]nc(-c3ccncc3)c2C1
pIC50: 4.00 to 6.00
//
COMPOUND: COc1ncccc1NC(=O)C1(C)CCc2[nH]nc(-c3ccncc3)c2C1 (stereo not drawn)
pIC50: 4.00 to 6.00
//
COMPOUND: COc1cccc(F)c1CN1[C@H]2CC[C@H](NC(=O)N3CCc4[nH]nc(-c5ccnc(C)c5)c4C3)[C@@H]1CC2
pIC50: 6.00 to 7.00
//
COMPOUND: COc1ccc(CN2CCC[C@@H](NC(=O)N3CCc4[nH]nc(-c5ccnc(C)c5)c4C3)C2)c2ccccc12
pIC50: 7.00 to 7.68
//
COMPOUND: COc1cccc(F)c1CN1CCCC(NC(=O)N2CCc3[nH]nc(-c4ccnc(C)c4)c3C2)C1C (stereo not drawn)
pIC50: 6.00 to 7.00
//
COMPOUND: Cc1cc(-c2n[nH]c3c2CN(C(=O)NC2CCC(c4ccccc4)NC2)CC3)ccn1 (stereo not drawn)
pIC50: 6.00 to 7.00
//
COMPOUND: Cc1cc(-c2n[nH]c3c2CN(C(=O)N[C@@H]2CCN(Cc4c(F)cccc4F)C2)CC3)ccn1
pIC50: 6.00 to 7.00
//
COMPOUND: CS(=O)(=O)c1cccc(CC(=O)N2CCc3[nH]nc(-c4ccncc4)c3C2)c1
pIC50: 6.00 to 7.00

Ask: Endpoint output: pIC50 of `O=C(N[C@@H]1CCCN(Cc2ccccc2N2CCOCC2)C1)N1CCc2[nH]nc(-c3ccncc3)c2C1` . Value?
Result: 6.00 to 7.00

Ask: Sample `Cc1nc2ccc(-c3n[nH]c4c3CN(C(=O)N[C@@H]3CCCN(Cc5csc6ccccc56)C3)CC4)cc2o1` — what was its pIC50?
Result: > 7.70

Ask: So what does the record say about pIC50 for `Cc1cc(-c2n[nH]c3c2CN(C(=O)N[C@@H]2CCN(Cc4c(C)cccc4C)C2)CC3)ccn1` ?
Result: 7.00 to 7.68

Ask: For the compound `Cc1cc(-c2n[nH]c3c2CN(C(=O)N[C@@H]2CCCN(Cc4c(F)cccc4F)C2)CC3)ccn1` , what pIC50 is on record?
Result: 7.00 to 7.68

Ask: Fill in: pIC50 of `Cc1cc(-c2n[nH]c3c2CN(C(=O)N[C@@H]2CC[C@H]4CC[C@@H]2N4Cc2ccccc2F)CC3)ccn1` is ___
Result: > 7.70

Ask: Could you share which pIC50 value was measured for Cc1ccc([C@@H]2CNC[C@H]2NC(=O)N2CCc3[nH]nc(-c4ccncc4)c3C2)cc1 (racemic) ?
Result: > 7.70

Ask: Recorded pIC50 of CCC1(NC(=O)N2CCc3[nH]nc(-c4ccnc(C)c4)c3C2)CCCN(Cc2csc3ccccc23)C1 (stereo not drawn) , please.
Result: 6.00 to 7.00

Ask: Bench note: what pIC50 did `CCn1cc(Cl)c(NC(=O)N2CCc3[nH]nc(-c4ccncc4)c3C2)n1` show?
Result: 4.00 to 6.00

Ask: Return reported pIC50; argument: `COc1cccc(F)c1CN1CCC[C@@H](NC(=O)N2CCc3[nH]nc(-c4ccc5nc(C)sc5c4)c3C2)C1`
Result: > 7.70

----------
Here we list molecules with their recorded pKd when tested on UniProt P63085.
API: returns pKd as number; meaning -log10 of concentration in mol/L.

SMILES ENTRY: Cc1ccccc1[C@@H]1CN(C)C[C@H]1NC(=O)N1CCc2[nH]nc(-c3ccncc3)c2C1
TEST SYSTEM: UniProt P63085
pKd: 9.15
--
SMILES ENTRY: O=C(N[C@@H]1CCCN(Cc2csc3ccccc23)C1)N1CCc2[nH]nc(-c3ccncc3)c2C1
TEST SYSTEM: UniProt P63085
pKd: 9.52

Ask: Find the recorded pKd belonging to `O=C(N[C@@H]1CCCN(Cc2c(F)cccc2F)C1)N1CCc2[nH]nc(-c3ccncc3)c2C1` and report it.
Result: 9.29

Ask: Entry `CC(=O)n1cc(CN2CCC[C@@H](NC(=O)N3CCc4[nH]nc(-c5ccncc5)c4C3)C2)c2ccccc21` : reported pKd = ?
Result: 8.68

Ask: # get_value(readout='pKd', item= `O=C(N[C@@H]1CCCN(Cc2ccccc2Cl)C1)N1CCc2[nH]nc(-c3ccncc3)c2C1` )
Result: 9.51

Value source: patent US9242981B2
